Data credit: patent US20230278972A1

# Test system: pigweed (Amaranthus retroflexus)
# procedure_details: Test A postemergence, pigweed
# Format: in vivo
# particulars: Postemergence, 125 g ai/ha; 0 to 100 scale (0 no effect, 100 complete control)
property: Plant response rating, Pigweed
Give the value as a plain number.

Worked cases, Plant response rating, Pigweed given:
molecule="Cc1cc(Cl)c(N(S(=O)(=O)C(F)(F)F)S(=O)(=O)C(F)(F)F)cc1C(=O)N1CCC(Cl)CC1 [Compound 200]" assayed_system="pigweed (Amaranthus retroflexus)" reading=60
molecule="Cc1cc(C(F)(F)F)c(NS(=O)(=O)C(F)(F)F)cc1C(=O)N1CCCCC1 [Compound 165]" assayed_system="pigweed (Amaranthus retroflexus)" reading=60
molecule="Cc1cc(C)c(C2=NOC3(CCC(C)(C)CC3)C2)cc1NS(=O)(=O)C(F)(F)F [Compound 163]" assayed_system="pigweed (Amaranthus retroflexus)" reading=60
molecule="C#CCN(C)C(=O)c1cc(NS(=O)(=O)C(F)(F)F)c(C)cc1C [Compound 189]" assayed_system="pigweed (Amaranthus retroflexus)" reading=60

Here is another molecule to look at.
Tested on pigweed (Amaranthus retroflexus), the item Cc1cc(C)c(C2=NOC3(C2)CC(C)OC(C)C3)cc1NS(=O)(=O)C(F)(F)F (single isomer, unassigned) [Compound 171] showed Plant response rating, Pigweed equal to 60

* * *

# System: wheat (Triticum aestivum)
# procedure_details: Test A postemergence, wheat
# Type: in vivo
# particulars: Postemergence, 125 g ai/ha; visual injury approx. 10 days; 0 to 100 scale (0 no effect, 100 complete control)
property: Plant response rating, Wheat
Give the value as a plain number.

Worked cases, Plant response rating, Wheat given:
molecule=COc1ccnn(-c2cc(NS(=O)(=O)C(F)(F)F)c(C)cc2C)c1=O assayed_system="wheat (Triticum aestivum)" property="Plant response rating, Wheat" reading=50
molecule=CC(=O)N(c1cc(-c2ccnn(C)c2=O)c(C)cc1C)S(=O)(=O)C(F)(F)F assayed_system="wheat (Triticum aestivum)" property="Plant response rating, Wheat" reading=50

According to the records, this molecule CSC1CCCN(C(=O)c2cc(NS(=O)(=O)C(F)(F)F)c(C)cc2C)C1 (stereo not drawn) displays Plant response rating, Wheat of 50

* * *

# Tested on: corn (Zea mays)
# procedure_details: Test A1 postemergence, corn
# Type: in vivo
# particulars: Postemergence, 125 g ai/ha; 0 to 100 scale (0 no effect, 100 complete control); 10 days
property: Plant response rating, Corn
Give the value as a plain number.

Worked cases, Plant response rating, Corn given:
molecule="Cc1cc(C)c(N(COC(=O)C(C)(C)C)S(=O)(=O)C(F)(F)F)cc1N1CCC2(CCC(C(F)(F)F)CC2)C1=O (centres unmarked)" reading=0
molecule=Cc1cc(Cl)c(NS(=O)(=O)C(F)(F)F)cc1N1CC2(CCCCC2)OC1=O reading=40
molecule="COC1CCC2(CC1)CCN(c1cc(NS(=O)(=O)C(F)(F)F)c(C)cc1C)C2=O (centres unmarked)" reading=60
molecule="Cc1cc(C)c(N(COC(=O)C(C)(C)C)S(=O)(=O)C(F)(F)F)cc1C1=NOC(C(C)C)C1 (centres unmarked)" reading=0

According to the records, this molecule Cc1cc(C)c(N2Cc3cccc(Br)c3C2=O)cc1NS(=O)(=O)Cl displays Plant response rating, Corn of 50
